Target: T1, Human TIGIT-His (human, UniProt Q495A1 22-141, biotinylated in the ForteBio Fab assay)
T1 construct: bought (Creative Biomart); also called Biotinylated Human TIGIT HIS; TIGIT-His monomer; not shown: His tag
T1 sequence (looked up): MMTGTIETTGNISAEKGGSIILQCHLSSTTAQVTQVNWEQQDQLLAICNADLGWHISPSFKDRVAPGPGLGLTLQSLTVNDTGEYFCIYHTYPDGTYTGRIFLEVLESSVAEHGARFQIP
Assay: MSD-SET, monovalent (Fab or mAb titrated, not said which)
Kd values by entry
PROPERTY NAME: Kd (nM)

>>> recorded_value("anti-TIGIT antibody clone 29523 (IgG) (antibody, V domains shown) VH: EVQLVESGGGVVQPGRSLRLSCAASGFTFGSYYMHWVRQAPGKGLEWVAVIWPDGSNKLYADSVKGRFTISRDNSKNTLYLQMNSLRAEDTALYYCAKPVPKSRALDVWGQGTMVTVSS VL: DIQLTQSPSSVSASVGDRVTITCRASQGISSWLAWYQQKPGKAPKLLIYGASSLQSGVPSRFSGSGSGTDFTLTISSLQPEDFATYYCQQAFYLPWTFGGGTKVEIK")
1.7
>>> recorded_value("anti-TIGIT antibody clone 29494 (IgG) (antibody, V domains shown) VH: QVQLQESGPGLVKPSETLSLTCTVSGGSISSGSYYLAWIRQPPGKGLEWIGSIFRSGSTYYNPSLESRVTISVDTSKNQFSLKLSSVTAADTAVYYCAIEGANFKDFGYVAFDIWGQGTMVTVSS VL: EIVMTQSPATLSVSPGERATLSCRASQSVSSNLAWYQQKPGQAPRLLIYGASTRATGIPARFSGSGSGTEFTLTISSLQSEDFAVYYCQQSPPWPRTFGGGTKVEIK")
0.07
>>> recorded_value("anti-TIGIT antibody clone 29513 (IgG) (antibody, V domains shown) VH: QVQLVQSGAEVKKPGSSVKVSCKASGGTFQNYAISWVRQAPGQGLEWMGVIVPIFGTANYAQKFQGRVTVTADESTSTAYMELSSLRSEDTAVYYCARLHLGQKAYYGMDVWGQGTTVTVSS VL: DIQMTQSPSSLSASVGDRVTITCRASQSISSYLNWYQQKPGKAPKLLIYAASSLQSGVPSRFSGSGSGTDFTLTISSLQPEDFATYYCQQRYVFPPTFGGGTKVEIK")
0.025
